Species: Rattus norvegicus
Assay summary: DrugMatrix - Regimen: Daily Repeat
Assay type: toxicity, organism-based, Sprague-Dawley
Design: regimen Daily Repeat, gender Male, age 6-8 weeks
Condition description: in vivo, ip, 0 mg/kg, 120 h, tissue Blood, route intraperitoneal, dose level Control, time 5 day, vehicle 100 % SALINE

# Substance, Output unit, ABSOLUTE MONOCYTE
data = [
    ("CISPLATIN", "cells/µL", 140),
    ("CARBOPLATIN", "cells/µL", 140),
    ("GOLD SODIUM THIOMALATE", "cells/µL", 140),
]

* * *

Organism: Rattus norvegicus
Assay summary: DrugMatrix - Regimen: Daily Repeat
Type: toxicity, organism-based, Sprague-Dawley
Design: regimen Daily Repeat, gender Male, age 6-8 weeks
Condition description: in vivo, po, 0 mg/kg, 72 h, tissue Blood, route oral GAVAGE, dose level Control, time 3 day, vehicle 100 % WATER
Measurement type: NUCLEATED RED BLOOD CELLS

# Compound, Reported result
records = [
    ("NC(=O)c1ncn([C@@H]2O[C@H](CO)[C@@H](O)[C@H]2O)n1", "0.33 /100WBC"),
    ("NCC1(CC(=O)O)CCCCC1", "0.17 /100WBC"),
    ("CN1CCC[C@H]1c1cccnc1", "0 /100WBC"),
    ("CN1CCN(C(=O)OC2c3nccnc3C(=O)N2c2ccc(Cl)cn2)CC1 (stereo not drawn)", "0 /100WBC"),
    ("CC(C)(S)[C@@H](N)C(=O)O", "0 /100WBC"),
    ("NNC(=O)c1ccncc1", "0.17 /100WBC"),
    ("Cc1cc(NS(=O)(=O)c2ccc(N)cc2)no1", "0 /100WBC"),
    ("COc1cccc(C2(O)CCCCC2CN(C)C)c1 (stereo not drawn)", "0.17 /100WBC"),
    ("Clc1ccc(C(c2ccccc2Cl)C(Cl)Cl)cc1 (stereo not drawn)", "0 /100WBC"),
    ("CC1COc2c(N3CCN(C)CC3)c(F)cc3c(=O)c(C(=O)O)cn1c23 (stereo not drawn)", "0 /100WBC"),
    ("Fc1ccc([C@@H]2CCNC[C@H]2COc2ccc3c(c2)OCO3)cc1", "0.17 /100WBC"),
    ("COc1ccc(C(CN(C)C)C2(O)CCCCC2)cc1 (stereo not drawn)", "0 /100WBC"),
    ("CC(CCc1ccccc1)NCC(O)c1ccc(O)c(C(N)=O)c1 (stereo not drawn)", "0 /100WBC"),
    ("O=C1NC(=O)C(c2ccccc2)(c2ccccc2)N1", "0.17 /100WBC"),
    ("CC1(C)S[C@@H]2[C@H](NC(=O)[C@H](N)c3ccc(O)cc3)C(=O)N2[C@H]1C(=O)O", "0 /100WBC"),
    ("CNCCC=C1c2ccccc2CCc2ccccc21", "0.17 /100WBC"),
    ("Nc1ccc(S(=O)(=O)Nc2ccnn2-c2ccccc2)cc1", "0.17 /100WBC"),
    ("C[C@]12Cc3c[nH]nc3C[C@@H]1CC[C@@H]1[C@@H]2CC[C@@]2(C)[C@H]1CC[C@]2(C)O", "0.17 /100WBC"),
]

* * *

Species: Rattus norvegicus
Assay summary: DrugMatrix - Regimen: Daily Repeat
Format: toxicity, organism-based, Sprague-Dawley
Design: regimen Daily Repeat, gender Male, age 6-8 weeks
Condition description: in vivo, iv, 0 mg/kg, 120 h, tissue Blood, dose level Control, time 5 day, vehicle 100 % SALINE

# Compound, ERYTHROCYTE COUNT (x10E6/uL)
data = [
    ("CC[C@@]1(O)C(=O)OCc2c1cc1n(c2=O)Cc2cc3ccccc3nc2-1 [CAMPTOTHECIN]", 5.93),
    ("NCC[C@H](O)C(=O)N[C@@H]1C[C@H](N)[C@@H](O[C@H]2O[C@H](CN)[C@@H](O)[C@H](O)[C@H]2O)[C@H](O)[C@H]1O[C@H]1O[C@H](CO)[C@@H](O)[C@H](N)[C@H]1O [AMIKACIN]", 5.44),
    ("CC1(C)S[C@@H]2[C@H](NC(=O)[C@H](NC(=O)N3CCNC3=O)c3ccccc3)C(=O)N2[C@H]1C(=O)O [AZLOCILLIN]", 5.89),
    ("CN(N=O)C(=O)N[C@@H](C=O)[C@@H](O)[C@H](O)[C@H](O)CO [STREPTOZOCIN]", 5.73),
]

* * *

Organism: Rattus norvegicus
Assay summary: DrugMatrix - Regimen: Daily Repeat
Format: toxicity, organism-based, Sprague-Dawley
Parameters: regimen Daily Repeat, gender Male, age 6-8 weeks
Condition description: in vivo, po, 0 mg/kg, 72 h, tissue Blood, route oral GAVAGE, dose level Control, time 3 day, vehicle .5 % CMC

# Compound, Output unit, MEAN CORPUSCULAR VOLUME
records = [
    ("CCc1cccc2c3c([nH]c12)C(CC)(CC(=O)O)OCC3 (stereo not given)", "fL", 64.22),
    ("C=C1CC[C@H](O)C/C1=C/C=C1\\CCC[C@]2(C)[C@@H]([C@H](C)/C=C/[C@H](C)C(C)C)CC[C@@H]12", "fL", 62.48),
    ("CN1C(C(=O)Nc2ccccn2)=C(O)c2ccccc2S1(=O)=O", "fL", 64.32),
    ("CC[C@H]1OC(=O)[C@H](C)[C@@H](O[C@H]2C[C@@](C)(OC)[C@@H](O)[C@H](C)O2)[C@H](C)[C@@H](O[C@@H]2O[C@H](C)C[C@H](N(C)C)[C@H]2O)[C@](C)(O)C[C@@H](C)/C(=N\\OCOCCOC)[C@H](C)[C@@H](O)[C@]1(C)O", "fL", 64.22),
    ("CC(C)[C@H](N)C(=O)OCCOCn1cnc2c(=O)[nH]c(N)nc21", "fL", 62.48),
]

* * *

Organism: Rattus norvegicus
Assay summary: DrugMatrix - Regimen: Daily Repeat
Format: toxicity, organism-based, Sprague-Dawley
Set-up: regimen Daily Repeat, gender Male, age 6-8 weeks
Condition description: in vivo, po, 0 mg/kg, 120 h, tissue Plasma, route oral GAVAGE, dose level Control, time 5 day, vehicle 100 % WATER
Measurement type: BLOOD UREA NITROGEN (mg/dL)

# Compound, Measurement type, Reported result
data = [
    ("CC1(C)S[C@@H]2[C@H](NC(=O)[C@H](N)c3ccc(O)cc3)C(=O)N2[C@H]1C(=O)O", "BLOOD UREA NITROGEN", 17),
    ("COc1cc2c(N3CCN(C(=O)Nc4ccc(OC(C)C)cc4)CC3)ncnc2cc1OCCCN1CCCCC1", "BLOOD UREA NITROGEN", 15.33),
    ("CC(CCc1ccccc1)NCC(O)c1ccc(O)c(C(N)=O)c1 (stereo not given)", "BLOOD UREA NITROGEN", 16.5),
    ("Nc1ccc(S(=O)(=O)Nc2ccnn2-c2ccccc2)cc1", "BLOOD UREA NITROGEN", 17.67),
    ("CC(C)(S)[C@@H](N)C(=O)O", "BLOOD UREA NITROGEN", 14.17),
]

* * *

Organism: Rattus norvegicus
Assay summary: DrugMatrix - Regimen: Daily Repeat
Type: toxicity, organism-based, Sprague-Dawley
Set-up: regimen Daily Repeat, gender Male, age 6-8 weeks
Condition description: in vivo, ip, 8 mg/kg, 120 h, tissue Blood, route intraperitoneal, dose level High, time 5 day, vehicle 100 % SALINE

# Substance, ABSOLUTE LYMPHOCYTE [cells/µL]
measured = [
    ("GOLD SODIUM THIOMALATE", 9210),
]

* * *

Organism: Rattus norvegicus
Assay summary: DrugMatrix - Regimen: Daily Repeat
Assay type: toxicity, organism-based, Sprague-Dawley
Design: regimen Daily Repeat, gender Male, age 6-8 weeks
Condition description: in vivo, iv, 0 mg/kg, 72 h, tissue Blood, dose level Control, time 3 day, vehicle 100 % SALINE

# Compound, MEAN CORPUSCULAR HEMOGLOBIN
measured = [
    ("CN(N=O)C(=O)N[C@@H](C=O)[C@@H](O)[C@H](O)[C@H](O)CO [STREPTOZOCIN]", "23.17 pg"),
    ("CC1(C)S[C@@H]2[C@H](NC(=O)[C@H](NC(=O)N3CCNC3=O)c3ccccc3)C(=O)N2[C@H]1C(=O)O [AZLOCILLIN]", "24.17 pg"),
    ("CC[C@@]1(O)C(=O)OCc2c1cc1n(c2=O)Cc2cc3ccccc3nc2-1 [CAMPTOTHECIN]", "25.68 pg"),
    ("NCC[C@H](O)C(=O)N[C@@H]1C[C@H](N)[C@@H](O[C@H]2O[C@H](CN)[C@@H](O)[C@H](O)[C@H]2O)[C@H](O)[C@H]1O[C@H]1O[C@H](CO)[C@@H](O)[C@H](N)[C@H]1O [AMIKACIN]", "23.95 pg"),
]

Values were extracted from ChEMBL document CHEMBL3885881.
